Parameter: pIC50. Scope: all listed entries.
- Study Target: CDK2/Cyclin E1 (Homo sapiens, UniProt P24941)
- Method: CDK2/Cyclin E1 Caliper LabChip EZ Reader mobility shift assay
- Type: biochemical
- Set-up: purchased Eurofins 14-475
- Study Conditions: read-out: Caliper Assay (CDK2/CCNE1): IC50
- Protocol: Inhibition of CDK2/Cyclin E1 activity in the presence of compounds of the present disclosure was evaluated using a Caliper LabChip® EZ Reader mobility shift assay. […] The peptide substrate and product were measured, and the conversion ratio was used to determine the inhibition (as % activity and IC50 values) of CDK2/Cyclin E1. […]
pIC50: −log10 of the molar value.

{"Compound": "C[C@@H](OCC1CCOCC1)[C@@H](COC(F)(F)F)NC(=O)[C@@H]1CN(C(=O)c2cncs2)CC12CN(C(=O)[C@H]1CC1(C)C)C2", "pIC50": "6.00 to 7.00"}
{"Compound": "CNC(=O)[C@@H](NC(=O)[C@H]1CN(C(=O)c2cccnc2)CC12CN(C(=O)[C@H]1CC1(C)C)C2)[C@@H](C)OCc1ccccc1 [I-42B]", "pIC50": "< 5.00"}
{"Compound": "CNC(=O)[C@@H](NC(=O)[C@H]1CN(C(=O)c2cnn(Cc3ccccc3)c2)CC12CN(C(=O)C1(c3ccc(C(C)(C)C)cc3)CC1)C2)[C@@H](C)OCc1ccccc1 [I-80B]", "pIC50": "< 5.00"}

Briefly, pIC50 measured for `C[C@@H](OC(C)(C)C1CCCCC1)[C@H](NC(=O)[C@@H]1CN(C(=O)c2cncs2)CC12CN(C(=O)[C@H]1CC1(C)C)C2)C(=O)N1CCCCC1` : 7.00 to 8.00

Briefly, pIC50 measured for CNC(=O)C(NC(=O)[C@@H]1CN(C(=O)c2cnn(Cc3ccccc3)c2)CC12CN(C(=O)[C@H]1CC1(C)C)C2)c1ccc(C)nn1 (stereo partly drawn) : 5.00 to 6.00

Briefly, pIC50 measured for `C[C@@H](OCc1ccccc1)[C@H](NC(=O)[C@@H]1CN(C(=O)c2cnn(Cc3ccccc3)c2)CC12CN(C(=O)[C@H]1CC1(C)C)C2)C(=O)N1CCC(F)(F)CC1` : ≥ 8.00
